Quick reference: TGI of the listed items.
system: SNB-75 CNS; assay: NCI tumour cell line growth inhibition, 48 h
Where a SMILES comes first, the peptide text is derived from it. The star is where a group is joined. Boc = CC(C)(C)OC(=O)*

compound	relationSign	TGI / µM
CCc1ccccc1NC(=O)C(=O)C(C#N)c1ccccc1Cl (centres undefined)	>	100
Cc1ccc(S(=O)(=O)N2CCC[C@@H]2C(=O)O[C@@H]2CCC3CC=CC32)cc1 (some centres undefined)	>	100
O=c1[nH]c(=O)c2ncn(-c3ccc([N+](=O)[O-])cn3)c2[nH]1	>	100
CS(=O)(=O)N1CCC(n2c(=O)c(Oc3ccc(F)cc3F)cc3cnc(NC4CCOCC4)nc32)CC1	>	25
CC(C)=CC1C(C(=O)Oc2ccccc2C(C)C)C1(C)C (centres undefined)	=	62
COc1cccc(C=O)c1C(=O)c1cc(O)ccc1O	>	100
Cc1cc2c(c(C(=O)NCC(=O)N[C@@H](C)C(=O)OCc3ccccc3)c1)Oc1c(cc(C)cc1C(=O)NCC(=O)N[C@@H](C)C(=O)OCc1ccccc1)S2	=	46.1
COc1ccc(-c2cc(/C=C3\C(=O)Nc4cc(Cl)ccc43)[nH]n2)cc1	=	6.96
Oc1cc(N2CC2)c(O)cc1N1CC1	=	2.6
COC(=O)CN(CC(=O)NCCCBr)C1CCCCC1N(CC(=O)OC)CC(=O)OC (centres undefined)	=	64.9
O=P(O)(O)c1ccc(-c2ccc(I)cc2)cc1	>	100
CCN1CCC(CC(=O)Nc2n[nH]c3nnc(-c4cccc(F)c4F)cc23)CC1	>	25
COc1cc2c(cc1OC)C(C#N)N(C(=O)c1ccccc1)C=C2OC(=O)c1ccccc1 (centres undefined)	=	40
C[C@@]1(CCCCCCCCCCc2ccccc2)C[C@@]2(C)OC(=O)C[C@H]2OO1	=	6.79
COC(=O)Nc1nc2ccc(S(=O)(=O)Nc3ccccn3)cc2[nH]1	=	71.1
CC(C)(C)N/N=C(\C(=O)Nc1cccc(Cl)c1)C1C(=O)Nc2ccccc2S1=O (centres undefined)	>	100
COC(=O)C(Cc1ccccc1)NC(=O)C(CS)NC(=O)OC(C)(C)C (stereo not drawn) (Boc-Cys-Phe-OMe; configuration not given here)	>	100
Cc1ccccc1NC(=O)Cc1csc(N/N=C2\NC(=O)/C(=C/c3cccc([N+](=O)[O-])c3)S2)n1	=	34
COc1cc2c3c(n(CCCN(CCCN(CCCn4c5c(c6ccccc6c4=O)C(=O)c4ccccc4-5)C(=O)OC(C)(C)C)C(=O)OC(C)(C)C)c(=O)c2cc1OC)-c1cc2c(cc1C3=O)OCO2	>	100

* * *

tested on: NCI-H522 lung; test: NCI tumour cell line growth inhibition, 48 h

compound	TGI
COc1ccc(-n2c(SC(CN3CCOCC3)CN3CCCC3=O)nc3ccccc3c2=O)cc1 (stereo not drawn)	> 100 µM
CC(=O)OCC1OC(n2cnc3nc(Br)[nH]c(=O)c32)C(OC(C)=O)C1OC(C)=O (stereo not drawn)	> 100 µM
COC(=O)CN(CC(=O)NCCCBr)C1CCCCC1N(CC(=O)OC)CC(=O)OC (stereo not drawn)	> 100 µM
COC(=O)Nc1nc2ccc(S(=O)(=O)Nc3ccccn3)cc2[nH]1	> 100 µM
CC1CCC2C(C)C(=O)OC3OC4(C)CCC1C32OO4 (stereo not drawn)	> 92.6 µM
COC(=O)c1ccc2nc(-c3cc4ccccc4n3C)n(CCCCOc3cc4c(cc3OC)C(=O)N3CCC[C@H]3C=N4)c2c1	1.1 µM
ClCCCSSCCCCl	65.6 µM
CC1=NN(C(=O)Cc2ccccc2)C(=O)/C1=C\c1ccc([N+](=O)[O-])cc1	> 100 µM
Cc1cc(=O)[nH]c(CNC(=O)c2ccc3ccccc3c2)n1	> 100 µM
CC1(C)OC[C@H](C(=N)OCc2ccccc2)O1	> 100 µM
COc1ccc(-c2oc3ccccc3c(=O)c2O)cc1OC	> 100 µM
O=C(NC(=Nc1ccccc1)SCSC(=Nc1ccccc1)NC(=O)c1ccco1)c1ccco1	91.5 µM
N#Cc1c(N)oc(-c2ccc([N+](=O)[O-])cc2)c1C#N	60.3 µM
